test system: Cryptococcus neoformans; experiment: CLSI broth microdilution MIC (Example 5); assay type: cell-based; conditions: Cryptococcus neoformans SA1
Please go through the items and note down their log10 MIC.
For clarity, the numbers are log10 values of MIC expressed in µg/mL.

Return reported log10 MIC; argument: [H]/N=C(\N)NN=C(CC1CCCCC1)c1ccc(Cl)cc1 0.30

Return reported log10 MIC; argument: C/C(=N\NC(=N)N/N=C(\C)c1ccc(C(C)(C)C)cc1)c1ccc(C(C)(C)C)cc1.Cl 0.30

Return reported log10 MIC; argument: COc1ccc(C=NNC(=N)NN=Cc2ccc(OC)c(OC)c2)cc1OC.Cl 0.90

Return reported log10 MIC; argument: Cc1ccc(/C=N/Nc2cc(N/N=C/c3ccc(C)cc3)nc(N)n2)cc1 0.30

Return reported log10 MIC; argument: C[C@@H]1[C@H](O)[C@@H](C)/C=C/C=C/C=C/C=C/C=C/C=C/C=C/[C@H](O[C@@H]2O[C@H](C)[C@@H](O)[C@H](N)[C@@H]2O)C[C@@H]2O[C@](O)(C[C@@H](O)C[C@@H](O)[C@H](O)CC[C@@H](O)C[C@@H](O)CC(=O)O[C@H]1C)C[C@H](O)[C@H]2C(=O)O [Amphotericin B, reference compound] -0.60

Return reported log10 MIC; argument: Cl.N=C(NN=Cc1cccc(F)c1)NN=Cc1cccc(F)c1 1.20

Return reported log10 MIC; argument: [H]/N=C(\N)NN=C(CCCCCC)c1ccc(Cl)cc1 0.00

Return reported log10 MIC; argument: Cl.N=C(NN=Cc1cc(O)c(O)c(O)c1)NN=Cc1cc(O)c(O)c(O)c1 1.20

Return reported log10 MIC; argument: CN(C)c1ccc(/C=N/NC(=N)N/N=C/c2ccc(N(C)C)cc2)cc1.Cl 0.60

Return reported log10 MIC; argument: Nc1nc(NN=Cc2ccc(F)cc2)cc(NN=Cc2ccc(F)cc2)n1 0.30

====

test system: C. gattii; test: CLSI broth microdilution MIC (Example 6); type: cell-based, Cryptococcus gattii; conditions: human clinical isolate C. gattii 16-90050373
endpoint.label: MIC (µg/mL)
Enter your answer as a number in µg/mL; do not include the unit.

Return reported MIC; argument: N=C(N/N=C/c1ccc(Cl)cc1)N/N=C/c1ccc(Cl)cc1 [NCL812, robenidine, reference compound] 16

Return reported MIC; argument: Cl.N#Cc1ccc(C=NNC(=N)NN=Cc2ccc(C#N)cc2)cc1 16

Return reported MIC; argument: [H]/N=C(\N)NN=C(CCCCCC)c1ccc(Cl)cc1 8

====

system: Cryptococcus neoformans; assay: CLSI broth microdilution MIC (Example 4); type: cell-based; conditions: Cryptococcus neoformans SA2
endpoint.label: MIC at 24-48 hours

Return reported MIC at 24-48 hours; argument: OCC(=NNc1cc(NN=C(CO)c2ccc(Cl)cc2)ncn1)c1ccc(Cl)cc1 >32 µg/mL

Return reported MIC at 24-48 hours; argument: COc1cc(Br)c(C=NNC(=N)NN=Cc2cc(OC)c(OC)cc2Br)cc1OC.Cl >32 µg/mL

Return reported MIC at 24-48 hours; argument: CCCCCCNC(=O)N(N=Cc1ccc(Cl)cc1)C(N)=NN=Cc1ccc(Cl)cc1 >32 µg/mL

Return reported MIC at 24-48 hours; argument: Cl.N=C(NN=Cc1cnc2ccccc2c1)NN=Cc1cnc2ccccc2c1 >32 µg/mL

Return reported MIC at 24-48 hours; argument: Clc1ccc(CNCCNCc2ccc(Cl)cc2)cc1 >32 µg/mL

Return reported MIC at 24-48 hours; argument: CN(C)c1ccc(/C=N/NC(=N)N/N=C/c2ccc(N(C)C)cc2)cc1.Cl 4 µg/mL

Return reported MIC at 24-48 hours; argument: Cl.N=C(N)N/N=C/c1ccc(C(F)(F)F)cc1F >32 µg/mL

Return reported MIC at 24-48 hours; argument: Cl.N=C(NN=Cc1cccc(F)c1)NN=Cc1cccc(F)c1 16 µg/mL

Return reported MIC at 24-48 hours; argument: Cl.N=C(NN=Cc1cc(Cl)cc(Cl)c1)NN=Cc1cc(Cl)cc(Cl)c1 >32 µg/mL
